Values from PubChem BioAssay (NCI)

- Test system: SF-268 CNS
- testProtocol: NCI tumour cell line growth inhibition, 48 h; in the data active = GI50 below about 0.43 µM; inactive = the rest
I would appreciate it if you answered using one of these outcomes: active, inactive

Study these solved cases before continuing.
molecule="C=CCC1(O)c2ccccc2C(=O)c2c(NCCN(CC(=O)OCC)CC(=O)OCC)cccc21 (centres undefined)" labelclass=inactive
molecule=COc1cccc(-c2nn(-c3ccccc3)cc2-c2ccnc(NCCCNC(=O)Nc3ccc(Cl)c(Cl)c3)c2)c1 labelclass=inactive
molecule=COc1ccc(-c2nc(-c3ccccc3)c(-c3ccccc3)[nH]2)cc1OC1CCCC1 labelclass=inactive

**Q:** State the result this test recorded for COc1cccc2c1C(=O)c1c(O)c3c(c(O)c1C2=O)CC(O)(C(O)CO)CC3OC1CC(N2CCOCC2)C(O)C(C)O1 (centres undefined) .
**A:** active

**Q:** Now the same for COc1cccc([C@H]2C/C(=N\NC(=O)C(=O)N[C@@H](C)c3ccccc3)c3ccccc3N2)c1
**A:** active

**Q:** Now the same for O=C(Cn1c(=O)c(-c2ccccc2)nc2ccccc21)Nc1ccc(F)cc1
**A:** inactive

**Q:** Now the same for CNCCCn1c2c(c3ccc([N+](=O)[O-])cc3c1=O)C(=O)c1cc(OC)cnc1-2
**A:** active

**Q:** Now the same for O=C(Nc1ccncc1)C(=O)c1cn(Cc2ccc(Cl)cc2)c2ccccc12
**A:** active

**Q:** Now the same for Cc1ccc(C(CC(=O)c2ccccc2)C2C(=O)NC(=O)NC2=O)cc1 (centres undefined)
**A:** inactive

====

- Tested on: LXFL 529 NSCLC
- testProtocol: NCI tumour cell line growth inhibition, 48 h
observable: TGI

compound="CC1OC(OC2C[C@](O)(C(=O)CF)Cc3c(O)c4c(c(O)c32)C(=O)c2ccccc2C4=O)CC(N)C1O (stereo partly drawn)" observable=TGI testvalue="1.27 µM"
compound="O=C(OCN1C(=O)C2C3C=CC(C2C1=O)C1C2C(=O)N(COC(=O)C4CCCN4)C(=O)C2C31)C1CCCN1 (stereo not drawn)" observable=TGI testvalue="> 100 µM"
compound=CCOC(=O)/C=C/n1c2ccccc2c(=O)c2ccccc21 observable=TGI testvalue="> 100 µM"
compound=Clc1ccc(N=Nc2nc3ccccc3nc2N=Nc2ccc(Cl)cc2Cl)c(Cl)c1 observable=TGI testvalue="> 100 µM"
compound="C=CCC(N(C)C(=O)[C@H](Cc1ccccc1)NC(=O)OCc1ccccc1)P(=O)(Oc1ccccc1)Oc1ccccc1 (stereo partly drawn)" observable=TGI testvalue="> 100 µM"
compound="Cc1oc2c(C)c3oc(=O)cc(C)c3cc2c1CN1C(=O)C2OCCOCCOCCOCCOCCO[C@H]2C1=O (stereo partly drawn)" observable=TGI testvalue="> 100 µM"

Quick batch: TGI for everything below.
1. Cc1ccc([N+](=O)[O-])cc1NC(=O)/C(=N/NC(=S)NN)C1SC(=S)NC1=O (stereo not drawn)
2. COc1cc([C@@H]2c3cc4c(cc3[C@@H](OC(=O)c3ccc(N)cc3)C3COC(=O)[C@@H]32)OCO4)cc(OC)c1O (stereo partly drawn)

**A:**
["> 100 µM", "> 95 µM"]

====

- System: BT-549 breast
- testProtocol: NCI tumour cell line growth inhibition, 48 h
observable: TGI

compound="CC(=O)OCC1OC(c2nc3ccccc3s2)=CC(OC(C)=O)C1OC(C)=O (centres undefined)" testvalue="> 100 µM"
compound=CC1=CC(=O)c2ccccc2C1=O testvalue="25.6 µM"
compound=COC1=CC(c2ccc[nH]2)=N/C1=C\c1[nH]c(C)c(C(=O)CCCCC(=O)NC(C)(C)C)c1C testvalue="4.5 µM"
compound=c1ccc(CN2CCC3(CC2)SSC2(CCN(Cc4ccccc4)CC2)S3)cc1 testvalue="> 100 µM"

Quick batch: TGI for everything below.
1. COc1ccc2c(c1)[nH]c1c(/C=C/c3ccccc3)nccc12
2. CN(C)CCN(C)c1ccc2c(=O)n(CCN(C)C)c(=O)n3c4ccccc4c(=O)c1c23
3. COC(=O)c1sc(=S)sc1SCc1ccc(CSc2sc(=S)sc2C(=O)OC)cc1
4. CC1OC(n2c3ccccc3c3c4c(c5c6ccccc6[nH]c5c32)C(=O)N(CCN[C@@H]2CCC[C@H]2N)C4=O)CC(O)C1O (some centres undefined)
5. CC(=O)C1=C(C)N(c2ccc(C)cc2)C2(O)C=CC(=O)C3C(=O)N(c4ccccc4)C(=O)C132 (centres undefined)

**A:**
29.9 µM
15 µM
> 100 µM
8.85 µM
39.8 µM
